The measured values listed here are drawn from ChEMBL document CHEMBL1955758.

tested on: Plasmodium falciparum; experiment: Antimalarial activity against chloroquine-sensitive Plasmodium falciparum 3D7; format: functional, organism-based
The entries below are paired with their reported IC50.
Dear colleague, please send the value followed by its unit.

{"Molecular String": "C#CCn1cc(C(=O)OCC)c(=O)c2cc(F)c(Cl)cc21", "Readout Kind": "IC50", "Measured": "3.46 µg/mL"}
{"Molecular String": "CCCn1cc(C(=O)OCC)c(=O)c2cc(F)c(Cl)cc21", "Readout Kind": "IC50", "Measured": "4.86 µg/mL"}
{"Molecular String": "CCOC(=O)c1cn(C)c2cc(Cl)c(F)cc2c1=O", "Readout Kind": "IC50", "Measured": "11.8 µg/mL"}
{"Molecular String": "CCCn1cc(Cn2cc(C(=O)OCC)c(=O)c3cc(F)c(Cl)cc32)nn1", "Readout Kind": "IC50", "Measured": "5.4 µg/mL"}
{"Molecular String": "CCOC(=O)c1cn(CC)c2cc(Cl)c(F)cc2c1=O", "Readout Kind": "IC50", "Measured": "15.2 µg/mL"}

-- ask Annotate the compound "CCOC(=O)c1c[nH]c2cc(Cl)c(F)cc2c1=O" with its measured IC50.
-- reply 5.81 µg/mL

-- ask Please give the documented IC50 of "CCOC(=O)c1cn(Cc2cn(Cc3ccccc3)nn2)c2cc(Cl)c(F)cc2c1=O"
-- reply 12.2 µg/mL

* * *

test system: Plasmodium falciparum; experiment: Antimalarial activity against chloroquine-sensitive Plasmodium falciparum 3D7; format: functional, organism-based
Readout Kind: IC50 (µg/mL)
Reply with just the number (in µg/mL).

Some solved entries appear below for comparison.
{"Molecular String": "CCOC(=O)c1cn(Cc2cn(CCO)nn2)c2cc(Cl)c(F)cc2c1=O", "Measured": 14.3}
{"Molecular String": "CCOC(=O)c1cn(C(C)C)c2cc(Cl)c(F)cc2c1=O", "Measured": 6.97}
{"Molecular String": "CCOC(=O)c1cn(Cc2cn(-c3ccc(Cl)cc3)nn2)c2cc(Cl)c(F)cc2c1=O", "Measured": 13}
{"Molecular String": "O=C(O)c1c[nH]c2cc(Cl)c(F)cc2c1=O", "Measured": 4.32}

-- ask Please respond with reported IC50 (system Plasmodium falciparum) for "CCOC(=O)c1cn(Cc2cn(-c3ccc(F)c(Cl)c3)nn2)c2cc(Cl)c(F)cc2c1=O" .
-- reply 3.4

-- ask Specify the recorded IC50 for "CCOC(=O)c1cn(Cc2cn(-c3ccnc4cc(Cl)ccc34)nn2)c2cc(Cl)c(F)cc2c1=O" , system: Plasmodium falciparum.
-- reply 4.06

-- ask Under Plasmodium falciparum: report IC50 of "CCOC(=O)c1cn(Cc2ccccc2)c2cc(Cl)c(F)cc2c1=O" .
-- reply 6.83

-- ask State the measured IC50 (Plasmodium falciparum) of "CCOC(=O)c1cn(Cc2cn(-c3cccc(Cl)c3)nn2)c2cc(Cl)c(F)cc2c1=O"
-- reply 2.73

-- ask Specify the recorded IC50 for "CCOC(=O)c1cn(CCO)c2cc(Cl)c(F)cc2c1=O" , system: Plasmodium falciparum.
-- reply 4.26

-- ask For Plasmodium falciparum, give IC50 of the listed compound: "O=C(O)c1cn(C2CC2)c2cc(N3CCNCC3)c(F)cc2c1=O"
-- reply 8.82
